Taken from patent US10793582B2.

molecular target: human recombinant KAT-II (Homo sapiens (Human), UniProt Q8N5Z0); test: KAT-II inhibitory test; settings: 3.0 μmol/L kynurenine, 37° C. for 1 hr, kynurenic acid by HPLC
Sequence (Q8N5Z0 30-425): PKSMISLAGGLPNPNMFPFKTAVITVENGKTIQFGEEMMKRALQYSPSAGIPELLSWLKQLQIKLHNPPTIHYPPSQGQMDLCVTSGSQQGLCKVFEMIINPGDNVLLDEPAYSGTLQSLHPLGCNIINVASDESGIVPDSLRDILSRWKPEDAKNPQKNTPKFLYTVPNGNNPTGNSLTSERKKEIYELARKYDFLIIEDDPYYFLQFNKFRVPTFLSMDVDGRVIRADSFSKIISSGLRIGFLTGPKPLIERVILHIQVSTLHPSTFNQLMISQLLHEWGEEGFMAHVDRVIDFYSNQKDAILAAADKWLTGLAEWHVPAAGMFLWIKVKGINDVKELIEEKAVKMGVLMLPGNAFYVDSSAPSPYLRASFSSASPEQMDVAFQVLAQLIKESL
IC50 reference

| chemical_structure | units | IC50 |
| --- | --- | --- |
| O=C(NCc1ccccc1)[C@H]1CCCN1c1nc2nc(C(F)F)nc(C3CCOCC3)c2s1 | nM | 410 |
| CCc1ncnc2nc(N3CCC[C@@H]3C(=O)NCc3ccccc3)sc12 | nM | 200 |
| O=C(NCc1ccccc1)[C@H]1CCCN1c1nc2nc(CC3CCOCC3)nc(C3CC3)c2s1 | nM | 35 |
| CN(c1nc2ncnc(C3CC3)c2s1)C(C)(C)C(=O)NCc1ccccc1 | nM | 2100 |
| O=C(NCc1ccccc1)[C@H]1CCCN1c1nc2ncc(C3CCOCC3)cc2s1 | nM | 72 |
| Cc1nc(-c2ccc(F)cc2)nc2nc(N3CCC[C@@H]3C(=O)NCc3ccccc3)sc12 | nM | 550 |
| CC1(c2ncnc3nc(N4CCC[C@@H]4C(=O)NCc4ccccc4)sc23)CC1 | nM | 65 |
| Cc1nc2nc(N3CCC[C@@H]3C(=O)NCc3ccccc3)sc2c(=O)n1C | nM | 840 |

====

pIC50 reference
target: human recombinant KAT-II (Homo sapiens (Human)); assay: KAT-II inhibitory test; settings: 3.0 μmol/L kynurenine, 37° C. for 1 hr, kynurenic acid by HPLC
pIC50: −log10 of the molar value.

| chemical_structure | pIC50 |
| --- | --- |
| N#Cc1cnc2nc(N3CCC[C@@H]3C(=O)NCc3ccccc3)sc2c1C1CC1 | 7.09 |
| CCc1nc(C2CC2)nc2nc(N3CCC[C@@H]3C(=O)NCc3ccccc3)sc12 | 6.77 |
| CC(C)c1ncnc2nc(N3CCC[C@@H]3C(=O)NCc3ccccc3)sc12 | 6.72 |
| CCc1cnc2nc(N3CCC[C@@H]3C(=O)NCc3ccccc3)sc2n1 | 6.85 |
| COCc1ncnc2nc(N3CCC[C@@H]3C(=O)N[C@H](C)c3ccccc3)sc12 | 6.19 |
| CN(C)Cc1nc(C2CC2)c2sc(N3CCC[C@@H]3C(=O)NCc3ccccc3)nc2n1 | 6.19 |
| N#CC1(c2cnc3nc(N4CCC[C@@H]4C(=O)NCc4ccccc4)sc3c2)CCOCC1 | 7.05 |
| O=C(NCc1ccccc1)[C@H]1CCCN1c1nc2nc(-c3ccncc3)nc(C3CC3)c2s1 | 7.12 |
